Reported μ-Opioid receptor, % inhibition [1 μM] values are given for each entry in this list.
tested target: human μ-opiate receptor (Homo sapiens, UniProt P35372)
Sequence (P35372 whole entry): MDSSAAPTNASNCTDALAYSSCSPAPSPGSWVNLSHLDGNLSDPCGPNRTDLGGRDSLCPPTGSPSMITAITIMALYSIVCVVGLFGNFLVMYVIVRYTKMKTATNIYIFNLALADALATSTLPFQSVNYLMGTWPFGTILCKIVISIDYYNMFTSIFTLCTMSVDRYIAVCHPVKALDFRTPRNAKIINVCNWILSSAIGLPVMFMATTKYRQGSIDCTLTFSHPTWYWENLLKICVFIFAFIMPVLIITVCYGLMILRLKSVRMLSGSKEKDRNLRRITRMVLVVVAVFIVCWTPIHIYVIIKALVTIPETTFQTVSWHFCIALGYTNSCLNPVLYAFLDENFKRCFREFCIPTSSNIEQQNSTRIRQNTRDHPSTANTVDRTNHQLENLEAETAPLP
method description: Affinity for the human μ-opiate receptor ([3H]-naloxone displacement, SPA, CHO-K1 membrane preparation)
Type: binding
measured endpoint: μ-Opioid receptor, % inhibition [1 μM] (%)

>>> experimental_value("CSc1ncccc1C(=O)NCC1CCC(C(c2ccc(Cl)cc2)N(C)C)CC1 (centres unmarked)")
97
>>> experimental_value("CN(C)C(c1ccccc1)C1CCC(NC(=O)c2cccc3ccccc23)CC1 (centres unmarked)")
87
>>> experimental_value("CSc1ncccc1C(=O)NCC1CCC(C(c2ccc(F)cc2)N(C)C)CC1 (centres unmarked)")
83
>>> experimental_value("CN(C)C(c1ccc(F)cc1)C1CCC(CCNC(=O)c2cccc(Cl)c2)CC1 (single isomer, unassigned)")
83
>>> experimental_value("CCSc1ncccc1C(=O)NCC1CCC(C(c2ccc(Cl)cc2)N(C)C)CC1 (centres unmarked)")
89
